The measured values listed here are drawn from patent US12448367B2.

Please go through the items and note down their Emax.
# MEASURED TARGET: recombinant human PKM2 (Homo sapiens, UniProt P14618)
# Construct: His (N); purchased R&D Systems
# Sequence (P14618 whole entry): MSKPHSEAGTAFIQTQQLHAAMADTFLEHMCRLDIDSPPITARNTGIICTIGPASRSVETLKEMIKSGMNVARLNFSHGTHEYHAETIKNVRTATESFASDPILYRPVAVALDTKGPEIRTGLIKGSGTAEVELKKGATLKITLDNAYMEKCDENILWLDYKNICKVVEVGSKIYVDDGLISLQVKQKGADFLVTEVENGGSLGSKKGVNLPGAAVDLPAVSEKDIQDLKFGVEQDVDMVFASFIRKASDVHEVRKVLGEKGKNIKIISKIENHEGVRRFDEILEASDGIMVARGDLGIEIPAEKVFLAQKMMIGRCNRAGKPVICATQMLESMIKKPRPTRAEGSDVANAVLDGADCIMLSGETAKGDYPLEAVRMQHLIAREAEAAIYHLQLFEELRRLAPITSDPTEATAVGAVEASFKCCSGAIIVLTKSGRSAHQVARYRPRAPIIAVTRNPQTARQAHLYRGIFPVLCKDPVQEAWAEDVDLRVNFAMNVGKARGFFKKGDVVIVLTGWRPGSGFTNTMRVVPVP
# PROCEDURE DETAILS: Human PKM2 activation assay (Kinase-Glo Plus luminescence, ATP generated)
# Assay type: biochemical
# COND: percentage activation normalised to DMSO (LOW) and 5 μM TEPP-46 (HIGH); * = repeat experiments; read-out: hPKM2 Emax
Answers are plain numbers, in %.

Solved cases (3 shown):
• Cc1[nH]nc(Cn2ncc3cc(S(=O)(=O)c4cc[nH]n4)ccc3c2=O)c1Cl [Example 6] = 94
• Cn1cc(S(=O)(=O)c2ccc3c(=O)n(Cc4cc5n(n4)CCO5)ncc3c2)cn1 [Example 5] = 110
• O=c1c2ccc(S(=O)(=O)c3cn[nH]c3)cc2cnn1Cc1cc2n(n1)CCO2 [Example 4] = 91

Working through the 2 compounds below one at a time, give Emax for each.
1. O=c1c2ccc(S(=O)(=O)c3cnn(CCO)c3)cc2cnn1Cc1ccc2c(n1)CCO2 [Example 3]
2. COc1ccc(Cn2ncc3cc(S(=O)(=O)c4cn[nH]c4)ccc3c2=O)nc1 [Example 1]

1: 108; 2: 111

What does the data say about its Emax? Entry: O=c1c2ccc(S(=O)(=O)c3cnn(C(F)F)c3)cc2cnn1Cc1cc[nH]n1 [Example 2]
100
